# EXPERIMENTAL_TARGET: Carbonic Anhydrase II from bovine erythrocytes (bCA-II) (Bos taurus, UniProt P00921)
# Sequence (P00921 whole entry): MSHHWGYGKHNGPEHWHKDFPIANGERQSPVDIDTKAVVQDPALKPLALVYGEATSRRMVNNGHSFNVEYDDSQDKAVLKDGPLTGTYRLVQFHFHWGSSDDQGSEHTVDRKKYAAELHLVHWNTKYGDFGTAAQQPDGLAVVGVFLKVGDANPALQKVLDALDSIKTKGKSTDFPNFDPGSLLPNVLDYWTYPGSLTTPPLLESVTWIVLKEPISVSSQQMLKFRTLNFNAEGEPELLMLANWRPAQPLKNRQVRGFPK
READOUT_TYPE: Kd (nM)
Answers are plain numbers, in nM.

Task: Consider the molecule shown here: NS(=O)(=O)c1ccccc1 [Benzenesulfonamide, benzenesulfonamide] What is its recorded Kd?
Output: 502
